These entries and their values trace back to patent US7365225B2.

targetUnderTest: SHP-1 (Homo sapiens)
Construct: using the catalytic core of a human recombinant PTP as the enzyme
Sequence (P29350 244-515 limits assumed): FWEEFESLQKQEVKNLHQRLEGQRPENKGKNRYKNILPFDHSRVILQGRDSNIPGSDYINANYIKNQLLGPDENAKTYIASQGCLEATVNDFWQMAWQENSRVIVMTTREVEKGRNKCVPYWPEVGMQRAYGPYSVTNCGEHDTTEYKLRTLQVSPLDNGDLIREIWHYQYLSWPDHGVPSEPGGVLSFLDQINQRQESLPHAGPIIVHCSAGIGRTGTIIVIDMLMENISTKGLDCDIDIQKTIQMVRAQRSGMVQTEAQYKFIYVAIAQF
methodNotes: PTP Enzyme Assay (DiFMUP), SHP-1
studyConditions: catalytic core of human recombinant PTP; 20 μM DiFMUP; 30 minutes at room temperature; read-out: IC50 value in respect of SHP-1
measuredParameter: IC50

The molecule listed as O=C(NCc1ccc(Oc2ccccc2)cc1)c1ccc(CN(C(=O)CCC2CCCC2)c2ccc(O)c(C(=O)O)c2)cc1 shows IC50 equal to 4 µM
